Cited source: paper PMC9482650

system: GRIP2_7, Q9C0E4
Sequence (Q9C0E4 934-1023): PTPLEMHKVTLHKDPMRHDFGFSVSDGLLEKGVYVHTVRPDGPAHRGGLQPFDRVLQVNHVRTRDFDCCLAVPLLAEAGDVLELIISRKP
measurement-notes: holdup assay
Design: key: below the threshold = too weak to quantify, mostly under pKd 3.1 to 4
setup-conditions: plain residues with an end cap or a label only (N-terminal biotin on a linker: ttds)

binder: SRSRRRETAL [HPV33-E6, P06427]
pKd: 3.42

binder: NPDALPETLV [ARHGAP6, O43182]
pKd: below the threshold

binder: PFRSRSPSEV [GPR6, P46095]
pKd: below the threshold
